# System: HT-29
# protocolText: Antiproliferative activity against human HT29 cell line at 10 uM
# Type: functional
measureName: inhibition at 10 µM (%)
Unit % implied. Number only.

Worked examples follow.
[[record]]
smilesrecord = "Cc1ccc(S(=O)(=O)n2cc3c4c2C(=O)c2c(-c5ccc(O)cc5)n[nH]c2C4=NCC3)cc1"
measurename = "inhibition at 10 µM"
units = "%"
observedvalue = 41

[[record]]
smilesrecord = "Cc1ccc(S(=O)(=O)n2cc3c4c2C(=O)c2c(-c5ccccc5)n[nH]c2C4=NCC3)cc1"
measurename = "inhibition at 10 µM"
units = "%"
observedvalue = 0


Consider the record given below.
Kindly note the recorded inhibition at 10 µM for O=C1c2[nH]cc3c2C(=NCC3)c2n[nH]c(-c3ccc(O)cc3)c21 , which is 0
